# credit: ChEMBL document CHEMBL4382241

# IC50 per record follows
Assay: Inhibition of Hedgehog signaling pathway in mouse ASZ001 cells assessed as reduction in […] Gli1 mRNA expression after 48 hrs by q-PCR analysis
Type: cell-based
Details: ASZ001, 48 h
Write it as a number; the unit µM goes unstated.

Field: example entries. Status: answers known.
CCC(CC)(c1ccc(OCC(O)CO)c(C)c1)c1ccc(OCC(O)C(C)(C)C)c(C)c1 (centres undefined) = 0.00023
CS(=O)(=O)c1ccc(C(=O)Nc2ccc(Cl)c(-c3ccccn3)c2)c(Cl)c1 = 0.04

Sure, the documented IC50 for C=C1CC[C@H](O)C/C1=C/C=C1\CCC[C@]2(C)[C@@H]([C@H](C)CCCC(C)(C)O)CC[C@@H]12 [CALCIFEDIOL ANHYDROUS] is 0.5

IC50 recorded for this compound, C[C@H](CCCC(C)(C)O)[C@H]1CC[C@H]2[C@H](CNc3ccc(O)cc3)CCC[C@]12C , is 0.5
